Experiment: Water solubility
Format: physicochemical
metric: solubility

Query CC1C[C@H]2[C@@H]3CCC4=CC(=O)C=C[C@]4(C)[C@@]3(F)C(O)C[C@]2(C)[C@@]1(O)C(=O)CSCCCC(=N)NCCCNCCCCNCCCN (stereo partly shown) yields solubility of > 100 mg/mL
